Reference for the values: patent US9993480B2

# Test system: K562 cells
# measurementNotes: Proliferation inhibition assay (WST-1)
# Type: cell-based, human
endpointName: pIC50
pIC50 (log units): -log10 of the concentration in mol/L.

# input Item NC(=O)NO [HuOH, hydroxyurea] has what recorded pIC50?
# output 2.31

###

# Tested on: HEL cells
# measurementNotes: Proliferation inhibition assay (WST-1)
# Assay type: cell-based, human
# conditionLabel: Homo sapiens
endpointName: pIC50
pIC50 (log units): -log10 of the concentration in mol/L.

CO[C@H]1C[C@@H]2CC[C@@H](C)[C@@](O)(O2)C(=O)C(=O)N2CCCC[C@H]2C(=O)O[C@H]([C@H](C)C[C@@H]2CC[C@@H](OCCO)[C@H](OC)C2)CC(=O)[C@H](C)/C=C(\C)[C@@H](O)[C@@H](OC)C(=O)[C@H](C)C[C@H](C)/C=C/C=C/C=C/1C = 4.85

Could you now consider this next molecule?
# input Item Cc1[nH]c2ccccc2c1CCNCc1ccc(/C=C/C(=O)NO)cc1 has what recorded pIC50?
# output 8.10

###

# Tested on: SET2 cells
# measurementNotes: Proliferation inhibition assay (WST-1)
# Type: cell-based, human
# conditionLabel: Homo sapiens, SET-2, read-out: IC50 of Cmp A in drug combination with PP242
endpointName: pIC50
pIC50 (log units): -log10 of the concentration in mol/L.

# input Item N#CC[C@H](C1CCCC1)n1cc(-c2ncnc3[nH]ccc23)cn1 has what recorded pIC50?
# output 7.33

###

# System: SET2 cells
# measurementNotes: Clonogenic assay in agar
# conditionLabel: Homo sapiens, SET-2, read-out: IC50 of Cmp A in drug combination with PP242
endpointName: IC50 (nM)
Note: unit nM is implicit; provide only the numeric part.

# input Item N#CC[C@H](C1CCCC1)n1cc(-c2ncnc3[nH]ccc23)cn1 has what recorded IC50?
# output 7.6

###

# System: SET2 cells
# measurementNotes: Proliferation inhibition assay (WST-1)
# Type: cell-based, human
# conditionLabel: Homo sapiens, SET-2, read-out: IC50 of Cmp A in drug combination with RAD001
# Text: The HEL, SET2 and K562 human cell lines were purchased from the German Collection of Microorganisms and Cell Cultures (DSMZ, Braunschweig, Germany). Murine BaF/3 and BaF/3-EPOR cells expressing JAK2 wild-type (wt) or JAK2V617F were donated by R. Skoda (Basel, Switzerland).
endpointName: IC50 (nM)
Note: unit nM is implicit; provide only the numeric part.

# input Item N#CC[C@H](C1CCCC1)n1cc(-c2ncnc3[nH]ccc23)cn1 has what recorded IC50?
# output 29

###

# Test system: SET2 cells
# measurementNotes: Proliferation inhibition assay (WST-1)
# Assay type: cell-based, human
# conditionLabel: Homo sapiens, SET-2; SET2; individual drug; read-out: IC50, proliferation inhibition
endpointName: IC50 (µM)
Note: unit µM is implicit; provide only the numeric part.

CO[C@H]1C[C@@H]2CC[C@@H](C)[C@@](O)(O2)C(=O)C(=O)N2CCCC[C@H]2C(=O)O[C@H]([C@H](C)C[C@@H]2CC[C@@H](OCCO)[C@H](OC)C2)CC(=O)[C@H](C)/C=C(\C)[C@@H](O)[C@@H](OC)C(=O)[C@H](C)C[C@H](C)/C=C/C=C/C=C/1C = 17

Could you now consider this next compound?
# input Recorded IC50 for Cc1[nH]c2ccccc2c1CCNCc1ccc(/C=C/C(=O)NO)cc1 with SET2 cells, please?
# output 0.007
